// provenance: patent US11964960B2

biological target: S1P2 (Homo sapiens, UniProt O95136); construct: Flag; expressed in transfected cells; host or cells: Chinese hamster ovary (CHO) cells, doxycycline-inducible (CHO-S1P2-FL / CHO-S1PR2 FL); assay: GLISA RhoA activation - antagonist assay; assay type: cell-based; details: 1 μM compound, CHO-S1P2-FL cells
Sequence (O95136 whole entry, species assumed): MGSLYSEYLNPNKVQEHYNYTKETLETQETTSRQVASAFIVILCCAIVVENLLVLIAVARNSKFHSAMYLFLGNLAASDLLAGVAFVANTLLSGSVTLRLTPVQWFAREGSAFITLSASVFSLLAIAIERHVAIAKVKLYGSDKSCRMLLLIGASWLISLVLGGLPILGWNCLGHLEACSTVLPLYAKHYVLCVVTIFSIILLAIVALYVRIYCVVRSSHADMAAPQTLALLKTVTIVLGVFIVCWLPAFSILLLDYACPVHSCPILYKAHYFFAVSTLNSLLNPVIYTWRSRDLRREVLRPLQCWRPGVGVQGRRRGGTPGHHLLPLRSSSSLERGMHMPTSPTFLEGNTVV
measurement name: inhibition at 1 µM (%)

Example entries and their recorded answers appear below.
Cc1ccc(Cn2c(C)cc(C(=O)C(C)n3cc(Br)ccc3=O)c2C)cc1 (stereo not drawn) :: 11
C#Cc1ccc(=O)n(CC(=O)c2cnn(Cc3ccccc3)c2C)n1 :: 70
Cc1noc(Cn2c(C)cc(C(=O)C(C)n3cc(Br)ccc3=O)c2C)n1 (stereo not drawn) :: 29

a = C#Cc1ccc(=O)n(CC(=O)c2cnn(Cc3ccccc3)c2C)c1
b = Cc1cc(C(=O)Cn2cc(C#N)ccc2=O)c(C)n1C(C)c1ccccc1 (stereo not drawn)
c = Cc1c(C(=O)Cn2cc(Br)ccc2=O)cnn1Cc1cccnc1
d = CC#Cc1ccc(=O)n(CC(=O)c2cc(C)n(Cc3ccccc3)c2C)c1
[in] Arrange these compounds by their inhibition at 1 µM, starting with the largest number. Use the labels to give the requested order.
[out] a, d, b, c
(a: 79%, d: 55%, b: 31%, c: 14%)

---

target: S1P2 (Homo sapiens, UniProt O95136); construct: Flag; expressed in transfected cells; host or cells: Chinese hamster ovary (CHO) cells, doxycycline-inducible (CHO-S1P2-FL / CHO-S1PR2 FL); test: GLISA RhoA activation - antagonist assay; type: cell-based; conditions: 1 μM compound, CHO-S1P2-FL cells
measurement name: inhibition at 1 µM (%)

Cc1cc(C(=O)C(C)n2cc(Br)ccc2=O)c(C)n1Cc1cccc(C(=O)O)c1 (centres unmarked) [Compound 23] :: 69
C#Cc1ccc(=O)n(CC(=O)c2cc(C)n(Cc3ccc(F)cc3)n2)c1 [Compound 31] :: 69
Cc1cc(=O)n(CC(=O)c2cnn(Cc3ccccc3)c2C)cc1Br [Example 40] :: 67
